The following compounds are listed with their measured IC50 values.
- targetOrSystem: Glycine receptor (alpha-1/beta) (Homo sapiens, UniProt P23415+P48167)
- Sequence (P23415 whole entry): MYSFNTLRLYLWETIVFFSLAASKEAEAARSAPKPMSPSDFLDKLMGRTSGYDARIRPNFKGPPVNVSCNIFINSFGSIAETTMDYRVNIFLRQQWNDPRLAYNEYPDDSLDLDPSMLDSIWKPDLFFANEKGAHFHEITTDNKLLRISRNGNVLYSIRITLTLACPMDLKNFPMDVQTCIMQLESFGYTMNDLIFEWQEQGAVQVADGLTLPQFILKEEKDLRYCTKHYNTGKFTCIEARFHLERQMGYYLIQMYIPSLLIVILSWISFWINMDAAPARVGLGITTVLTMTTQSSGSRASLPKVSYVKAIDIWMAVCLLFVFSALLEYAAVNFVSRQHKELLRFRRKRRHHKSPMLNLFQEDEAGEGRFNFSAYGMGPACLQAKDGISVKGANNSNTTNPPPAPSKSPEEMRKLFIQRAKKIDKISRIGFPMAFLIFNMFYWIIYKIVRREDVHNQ
- Sequence (P48167 whole entry): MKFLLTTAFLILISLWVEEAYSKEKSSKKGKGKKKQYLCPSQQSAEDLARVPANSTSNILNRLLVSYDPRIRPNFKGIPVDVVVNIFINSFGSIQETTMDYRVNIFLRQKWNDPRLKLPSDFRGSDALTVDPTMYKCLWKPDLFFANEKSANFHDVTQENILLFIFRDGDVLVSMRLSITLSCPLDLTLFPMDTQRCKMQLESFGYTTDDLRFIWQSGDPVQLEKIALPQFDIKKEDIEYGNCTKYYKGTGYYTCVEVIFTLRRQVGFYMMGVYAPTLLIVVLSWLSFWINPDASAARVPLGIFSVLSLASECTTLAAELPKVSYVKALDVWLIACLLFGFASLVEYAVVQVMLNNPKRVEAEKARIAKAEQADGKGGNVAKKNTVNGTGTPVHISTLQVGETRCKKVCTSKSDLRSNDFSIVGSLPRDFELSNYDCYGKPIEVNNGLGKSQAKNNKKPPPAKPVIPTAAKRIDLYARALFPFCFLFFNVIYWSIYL
- experimentalDetails: Antagonist activity at human glycine receptor subunit alpha-1beta expressed in human tsA201 cells assessed as reduction in glycine-induced response incubated for 30 mins by fluorescence-based FLIPR membrane potential blue assay
- Assay type: cell-based
- setupConditions: read-out: IC50
# value in nM; strip the unit string

Solved entries (count: 5):
[[record]]
smilestext = "O=C(CCCCCCC(=O)NCCCCCCCCCCC(=O)Nc1ccc2c(c1)[C@@]13CCN4CC5=CCO[C@H]6CC(=O)N2[C@H]1[C@H]6[C@H]5C[C@H]43)NCCCCCCCCCCC(=O)Nc1ccc2c(c1)[C@@]13CCN4CC5=CCO[C@H]6CC(=O)N2[C@H]1[C@H]6[C@H]5C[C@H]43"
measurename = "IC50"
resultunit = "nM"
resultnumber = 20000

[[record]]
smilestext = "O=C(CCCCCCCCC(=O)Nc1ccc2c(c1)[C@@]13CCN4CC5=CCO[C@H]6CC(=O)N2[C@H]1[C@H]6[C@H]5C[C@H]43)Nc1ccc2c(c1)[C@@]13CCN4CC5=CCO[C@H]6CC(=O)N2[C@H]1[C@H]6[C@H]5C[C@H]43"
measurename = "IC50"
resultunit = "nM"
resultnumber = 10000

[[record]]
smilestext = "O=C(CCCCCCCCCCCCC(=O)NCC(=O)Nc1ccc2c(c1)[C@@]13CCN4CC5=CCO[C@H]6CC(=O)N2[C@H]1[C@H]6[C@H]5C[C@H]43)NCC(=O)Nc1ccc2c(c1)[C@@]13CCN4CC5=CCO[C@H]6CC(=O)N2[C@H]1[C@H]6[C@H]5C[C@H]43"
measurename = "IC50"
resultunit = "nM"
resultnumber = 2000

[[record]]
smilestext = "O=C(CCCCCCCCCCCCC(=O)Nc1ccc2c(c1)[C@@]13CCN4CC5=CCO[C@H]6CC(=O)N2[C@H]1[C@H]6[C@H]5C[C@H]43)Nc1ccc2c(c1)[C@@]13CCN4CC5=CCO[C@H]6CC(=O)N2[C@H]1[C@H]6[C@H]5C[C@H]43"
measurename = "IC50"
resultunit = "nM"
resultnumber = 210

[[record]]
smilestext = "COCCOCCOCCOCCOCCOCCOCCOCCOCCOCCOCCOCCC(=O)NCCCCCCCCCCC(=O)Nc1ccc2c(c1)[C@@]13CCN4CC5=CCO[C@H]6CC(=O)N2[C@H]1[C@H]6[C@H]5C[C@H]43"
measurename = "IC50"
resultunit = "nM"
resultnumber = 10000


Incoming: Check the records and state IC50 for "COCCOCCOCCOCCOCCOCCOCCOCCOCCOCCOCCOCCC(=O)NCCCCC(=O)Nc1ccc2c(c1)[C@@]13CCN4CC5=CCO[C@H]6CC(=O)N2[C@H]1[C@H]6[C@H]5C[C@H]43"
Outgoing: 10000

Incoming: Check the records and state IC50 for "O=C(CCCCCCCC(=O)NCC(=O)Nc1ccc2c(c1)[C@@]13CCN4CC5=CCO[C@H]6CC(=O)N2[C@H]1[C@H]6[C@H]5C[C@H]43)NCC(=O)Nc1ccc2c(c1)[C@@]13CCN4CC5=CCO[C@H]6CC(=O)N2[C@H]1[C@H]6[C@H]5C[C@H]43"
Outgoing: 1700

Incoming: Check the records and state IC50 for "O=C(CCCCCCCCCCC(=O)NCC(=O)Nc1ccc2c(c1)[C@@]13CCN4CC5=CCO[C@H]6CC(=O)N2[C@H]1[C@H]6[C@H]5C[C@H]43)NCC(=O)Nc1ccc2c(c1)[C@@]13CCN4CC5=CCO[C@H]6CC(=O)N2[C@H]1[C@H]6[C@H]5C[C@H]43"
Outgoing: 1900

Incoming: Check the records and state IC50 for "CCCCCCCC(=O)NCC(=O)Nc1ccc2c(c1)[C@@]13CCN4CC5=CCO[C@H]6CC(=O)N2[C@H]1[C@H]6[C@H]5C[C@H]43"
Outgoing: 510

Incoming: Check the records and state IC50 for "O=C(CCCCCCC(=O)Nc1ccc2c(c1)[C@@]13CCN4CC5=CCO[C@H]6CC(=O)N2[C@H]1[C@H]6[C@H]5C[C@H]43)Nc1ccc2c(c1)[C@@]13CCN4CC5=CCO[C@H]6CC(=O)N2[C@H]1[C@H]6[C@H]5C[C@H]43"
Outgoing: 10000

Incoming: Check the records and state IC50 for "O=C(CCOCCOCCOCCOCCOCCOCCOCCOCCOCCOCCOCCOCCC(=O)NCCCCC(=O)Nc1ccc2c(c1)[C@@]13CCN4CC5=CCO[C@H]6CC(=O)N2[C@H]1[C@H]6[C@H]5C[C@H]43)NCCCCC(=O)Nc1ccc2c(c1)[C@@]13CCN4CC5=CCO[C@H]6CC(=O)N2[C@H]1[C@H]6[C@H]5C[C@H]43"
Outgoing: 1800
